Reported IC50 is given for each of the following compounds.
# tested-target: Smo D473H mutant (Homo sapiens, UniProt Q99835, D473H)
# Sequence (Q99835 28-787 D473H): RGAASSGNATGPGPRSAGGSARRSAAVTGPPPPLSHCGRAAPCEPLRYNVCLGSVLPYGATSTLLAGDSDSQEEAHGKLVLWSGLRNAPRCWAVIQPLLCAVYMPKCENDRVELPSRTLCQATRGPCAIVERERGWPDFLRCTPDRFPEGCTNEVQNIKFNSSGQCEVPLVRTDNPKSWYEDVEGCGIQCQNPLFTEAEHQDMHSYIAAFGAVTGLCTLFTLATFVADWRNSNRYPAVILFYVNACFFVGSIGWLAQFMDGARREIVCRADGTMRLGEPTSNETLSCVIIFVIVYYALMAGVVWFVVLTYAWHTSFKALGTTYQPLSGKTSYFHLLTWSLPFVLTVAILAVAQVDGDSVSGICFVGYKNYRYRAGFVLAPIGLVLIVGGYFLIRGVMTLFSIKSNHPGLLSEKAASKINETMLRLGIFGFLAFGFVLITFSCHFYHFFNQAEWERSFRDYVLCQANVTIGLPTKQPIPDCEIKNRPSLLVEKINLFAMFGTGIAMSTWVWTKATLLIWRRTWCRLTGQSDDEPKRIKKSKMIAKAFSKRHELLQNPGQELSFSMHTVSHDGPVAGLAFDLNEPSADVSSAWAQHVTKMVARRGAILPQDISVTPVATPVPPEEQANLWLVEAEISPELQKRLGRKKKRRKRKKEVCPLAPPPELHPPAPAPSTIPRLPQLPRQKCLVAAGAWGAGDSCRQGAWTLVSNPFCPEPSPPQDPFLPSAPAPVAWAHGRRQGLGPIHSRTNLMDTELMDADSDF
# protocol-details: Reporter assay of C3H10T1/2-Gli-Luc cells transfected with Smo D473H mutant, without SAG
# stated-conditions: C3H10T1/2 cells transfected with pLPCX-SMO-D473H, no SAG, 48 hr; read-out: Inhibition of C3H10T1/2-Gli-Luc-Smo-D473H [IC50

Some entries whose results are on file:
compound	IC50
CSc1cnc(Nc2ccc(C(=O)Nc3cc(CN4CCCCC4)ccc3C)cc2F)nc1-c1ccc(F)cc1 [Compound 42]	100 to 1000 nM
COc1cccc(OC)c1NC(=O)c1ccc(Nc2ncc(SC)c(-c3ccccc3)n2)cc1 [Compound 21]	100 to 1000 nM
CSc1cnc(Nc2ccc(C(=O)Nc3c(F)cccc3F)cc2)nc1-c1cccnc1F [Compound 8]	100 to 1000 nM

Query compound follows.
Would you kindly share the measured IC50 for CSc1cnc(Nc2ccc(C(=O)Nc3cccc(CN4CCOCC4)c3)cn2)nc1-c1ccc(OC(F)(F)F)cc1 [Compound 64] ?
< 100 nM

Provenance of the data: patent US10793542B2
